Where do these numbers come from? They come from patent US20230135894A1.

Measured DC50 values are reported for all entries that follow.
biological target: MK2 (Homo sapiens); assay: MK2 degradation in human THP-1 monocytic cells (MSD, 24 h); format: cell-based; parameters: endogenous in cells; details: THP-1 cells, read-out: MK2 MSD THP-1 degradation 24 h GMean External Abs DC50
Sequence (P49137 whole entry): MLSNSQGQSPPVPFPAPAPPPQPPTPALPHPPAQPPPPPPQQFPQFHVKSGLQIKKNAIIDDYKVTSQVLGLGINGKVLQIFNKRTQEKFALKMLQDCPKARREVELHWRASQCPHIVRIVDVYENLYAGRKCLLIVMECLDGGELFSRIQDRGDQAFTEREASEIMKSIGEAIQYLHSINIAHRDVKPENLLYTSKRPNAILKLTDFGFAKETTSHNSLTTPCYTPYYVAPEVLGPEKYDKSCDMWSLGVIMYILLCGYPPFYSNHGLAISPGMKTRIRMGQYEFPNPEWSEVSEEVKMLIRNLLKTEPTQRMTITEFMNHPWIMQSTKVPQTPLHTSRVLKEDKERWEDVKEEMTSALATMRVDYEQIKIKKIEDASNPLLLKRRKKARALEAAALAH

Molecule	DC50
C[C@@H]1CNc2c(sc3ccc4nc(-c5ccc(N6CCN(C7CC(c8cccc9c8n(C)c(=O)n9C8CCC(=O)NC8=O)C7)CC6)cc5)ccc4c23)C(=O)N1 (stereo partly drawn) [Compound I-246]	< 1 nM
C[C@@H]1CN(C)c2c(sc3ccc4nc(-c5ccc(N6CCC(CN7CCN(c8cccc9c(N%10CCC(=O)NC%10=O)cncc89)CC7)CC6)cc5)ccc4c23)C(=O)N1 [Compound I-261]	> 100 nM
Cn1c(=O)n(C2CCC(=O)NC2=O)c2cccc(CCCN3CCN(c4ccc(F)c(-c5cc(-c6cc7c([nH]6)CCNC7=O)ccn5)c4)CC3)c21 (stereo not drawn) [Compound I-133]	> 100 nM
C[C@@H]1CNc2c(sc3ccc4nc(-c5ccc(N6CCN(CC7CCN(c8cccc9c8n(C)c(=O)n9C8CCC(=O)NC8=O)CC7)CC6)cc5)ccc4c23)C(=O)N1 (stereo partly drawn) [Compound I-126]	1 to 10 nM
C[C@@H]1CNc2c(sc3ccc4nc(-c5ccc(N6CCN(CC7CCN(c8ccc9c(c8)CN(C8CCC(=O)NC8=O)C9=O)CC7)CC6)cc5)ccc4c23)C(=O)N1 (stereo partly drawn) [Compound I-302]	1 to 10 nM
C[C@@H]1CNc2c(sc3ccc4nc(-c5cc(N6CCN(CCCCCCCCc7cccc8c7n(C)c(=O)n8C7CCC(=O)NC7=O)CC6)ccc5F)ccc4c23)C(=O)N1 (stereo partly drawn) [Compound I-286]	10 to 100 nM
C[C@@H]1Cc2[nH]c(-c3ccnc(-c4ccc(N5CCC(CN6CCC(c7cccc8c7n(C)c(=O)n8C7CCC(=O)NC7=O)CC6)CC5)cc4)c3)cc2C(=O)N1 (stereo partly drawn) [Compound I-248]	1 to 10 nM
C[C@@H]1CNc2c(sc3ccc4nc(-c5ccc(CNC(=O)CCCCCCCc6cccc7c6n(C)c(=O)n7C6CCC(=O)NC6=O)cc5)ccc4c23)C(=O)N1 (stereo partly drawn) [Compound I-88]	1 to 10 nM
C[C@@H]1CNc2c(sc3ccc4nc(-c5cc(N6CCC(CN7CCC(c8cccc9c8n(C)c(=O)n9C8CCC(=O)NC8=O)CC7)CC6)ccc5F)ccc4c23)C(=O)N1 (stereo partly drawn) [Compound I-284]	1 to 10 nM
Cn1c(=O)n(C2CCC(=O)NC2=O)c2ccc(N3CCC(CN4CCN(c5ccc(-c6cc(-c7cc8c([nH]7)CCNC8=O)ccn6)c(F)c5)CC4)CC3)cc21 (stereo not drawn) [Compound I-226]	< 1 nM

*Q* // query DC50 value for entry C[C@@H]1CNc2c(sc3ccc4nc(-c5cccc(C#CCCNC(=O)CCCCCCCCCc6ccc7c(c6)n(C)c(=O)n7C6CCC(=O)NC6=O)c5)ccc4c23)C(=O)N1 (stereo partly drawn) [Compound I-45]
*A* 10 to 100 nM

*Q* Also need Cn1c(=O)n(C2CCC(=O)NC2=O)c2ccc(N3CCC(CN4CCN(c5ccc6occc6c5-c5cc(Nc6ccnc(N)n6)cc6cn[nH]c56)CC4)CC3)cc21 (stereo not drawn) [Compound I-453] , thanks.
*A* > 100 nM
